Study target: PI3-Kα (Mus musculus (Mouse))
Sequence (P42337 whole entry, the tested form may be a part): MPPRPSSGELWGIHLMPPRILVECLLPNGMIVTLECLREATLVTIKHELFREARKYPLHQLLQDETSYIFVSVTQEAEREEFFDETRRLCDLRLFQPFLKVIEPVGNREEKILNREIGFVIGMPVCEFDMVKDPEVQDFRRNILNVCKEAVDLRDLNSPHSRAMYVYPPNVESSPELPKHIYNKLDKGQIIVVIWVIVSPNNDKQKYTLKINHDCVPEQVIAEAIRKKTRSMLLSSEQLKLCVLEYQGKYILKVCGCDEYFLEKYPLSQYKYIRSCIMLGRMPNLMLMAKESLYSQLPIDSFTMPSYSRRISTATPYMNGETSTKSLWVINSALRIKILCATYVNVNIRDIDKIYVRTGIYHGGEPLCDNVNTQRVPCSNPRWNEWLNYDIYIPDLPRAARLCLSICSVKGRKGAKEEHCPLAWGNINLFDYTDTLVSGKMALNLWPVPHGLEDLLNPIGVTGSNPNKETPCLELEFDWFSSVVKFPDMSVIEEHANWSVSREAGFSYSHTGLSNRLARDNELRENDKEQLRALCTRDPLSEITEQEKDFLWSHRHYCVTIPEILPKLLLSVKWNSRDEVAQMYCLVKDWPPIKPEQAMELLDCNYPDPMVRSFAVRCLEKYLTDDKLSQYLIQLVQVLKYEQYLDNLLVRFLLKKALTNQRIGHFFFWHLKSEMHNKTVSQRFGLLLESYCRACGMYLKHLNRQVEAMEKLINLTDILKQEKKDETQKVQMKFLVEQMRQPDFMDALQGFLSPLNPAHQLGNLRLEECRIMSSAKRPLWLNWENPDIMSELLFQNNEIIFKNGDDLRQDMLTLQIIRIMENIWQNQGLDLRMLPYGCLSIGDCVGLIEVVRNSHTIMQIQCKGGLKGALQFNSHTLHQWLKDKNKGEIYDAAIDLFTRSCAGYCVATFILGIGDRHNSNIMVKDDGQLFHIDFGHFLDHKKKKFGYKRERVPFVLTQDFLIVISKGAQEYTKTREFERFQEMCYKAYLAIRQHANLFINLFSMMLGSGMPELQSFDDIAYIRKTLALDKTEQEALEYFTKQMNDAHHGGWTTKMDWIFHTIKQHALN
Sequence (P26450 whole entry partner, the tested form may be a part): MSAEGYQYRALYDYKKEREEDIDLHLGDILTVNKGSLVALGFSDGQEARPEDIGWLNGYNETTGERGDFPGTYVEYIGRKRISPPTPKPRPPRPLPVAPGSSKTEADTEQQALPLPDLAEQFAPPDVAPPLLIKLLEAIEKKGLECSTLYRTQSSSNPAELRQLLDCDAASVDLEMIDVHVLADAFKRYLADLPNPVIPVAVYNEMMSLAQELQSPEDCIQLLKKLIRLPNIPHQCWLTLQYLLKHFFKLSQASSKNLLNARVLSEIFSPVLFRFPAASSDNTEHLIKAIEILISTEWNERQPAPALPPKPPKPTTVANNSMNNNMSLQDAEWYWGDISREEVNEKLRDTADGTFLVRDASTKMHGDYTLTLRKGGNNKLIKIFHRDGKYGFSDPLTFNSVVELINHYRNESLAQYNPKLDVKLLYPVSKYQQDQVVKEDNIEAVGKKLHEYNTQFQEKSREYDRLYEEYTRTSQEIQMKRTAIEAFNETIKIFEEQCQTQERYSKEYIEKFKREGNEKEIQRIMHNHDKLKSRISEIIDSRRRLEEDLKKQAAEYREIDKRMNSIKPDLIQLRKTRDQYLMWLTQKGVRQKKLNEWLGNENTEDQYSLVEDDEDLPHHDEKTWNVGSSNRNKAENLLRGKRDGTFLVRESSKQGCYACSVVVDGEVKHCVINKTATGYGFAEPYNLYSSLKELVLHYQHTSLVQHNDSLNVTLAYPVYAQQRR
Assay info: PI3-Kα biochemical assay (in vitro kinase assay, fluorescence polarization);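 also: Insect-cell-expressed mouse p110/p85 complex converting PI(4,5)P2, product PI(3,4,5)P3 detected by displacing TAMRA-tagged PI(3,4,5)P3 from Grip1 PH domain, lower polarization means more product, room temperature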
Measurement context: Ki calculated from IC50, [ATP]=30 uM, Km=25 uM
Could you please report measured PI3Ka Ki for the items listed next?
Form field: result (number plus unit)

CN(C)c1ccc(-c2ccc3ncc4c(c3n2)n(C2CCN(CCO)CC2)c(=O)n4C)cn1 [Compound 198] = 3.13 nM
C[C@H](CO)n1c(=O)n(C)c2cnc3ccc(-c4cnc5ccccc5c4)nc3c21 [Compound 234] = 57.3 nM

# map each compound to its PI3Ka Ki
1. Cn1c(=O)n(C2CCNCC2)c2c3nc(-c4cnc(N)nc4)ccc3ncc21 [Compound 227]
2. CN1CCC(n2c(=O)n(C)c3cnc4ccc(-c5cnc6[nH]ncc6c5)nc4c32)CC1 [Compound 263]

["1.61 nM", "0.282 nM"]

src = patent US8791131B2
